All values here come from patent US20250197377A1.

Experiment: Solubility in bio-relevant media
Assay type: physicochemical
Conditions: SGF, simulated gastric fluid; 2 h
observed_property: solubility at 2 h (mg/mL)
Supply the numeric figure in mg/mL, leaving out any unit text.

## Input Form field: reported solubility at 2 h of C=CC(=O)Nc1cc(Nc2nccc(Nc3cc(Cl)c(F)cc3C(C)(C)O)n2)c(OC)cc1N1CC[C@@H](N(C)C)C1 [Form B]
## Output 24.2

---

Assay: Solubility in bio-relevant media
Type: physicochemical
Settings: FeSSIF; 24 hrs; salts
Reported solubility at 24 h values follow for various molecules

C=CC(=O)Nc1cc(Nc2nccc(Nc3cc(Cl)c(F)cc3C(C)(C)O)n2)c(OC)cc1N1CC[C@@H](N(C)C)C1.Cl [Hydrochloric acid salt] ... > 11.1 mg/mL

Shifting focus to the molecule that follows.
## Input Form field: reported solubility at 24 h of C=CC(=O)Nc1cc(Nc2nccc(Nc3cc(Cl)c(F)cc3C(C)(C)O)n2)c(OC)cc1N1CC[C@@H](N(C)C)C1.O=C(O)/C=C/C(=O)O [Fumaric acid salt]
## Output > 9.75 mg/mL

---

Test: PK study of Form A and Form B in Rat
Assay type: in vivo
Settings: rat, in vivo, 25 mg/kg
observed_property: Cmax (ng/mL)
Supply the numeric figure in ng/mL, leaving out any unit text.

## Input Form field: reported Cmax of C=CC(=O)Nc1cc(Nc2nccc(Nc3cc(Cl)c(F)cc3C(C)(C)O)n2)c(OC)cc1N1CC[C@@H](N(C)C)C1 [Form A]
## Output 199

---

Assay: PK study of Form A and Form B in Rat
Assay type: in vivo
Settings: rat, in vivo, 25 mg/kg, read-out: Mean AUC0~48
observed_property: AUC(0-t) (ng·h/mL)
Supply the numeric figure in ng·h/mL, leaving out any unit text.

## Input Form field: reported AUC(0-t) of C=CC(=O)Nc1cc(Nc2nccc(Nc3cc(Cl)c(F)cc3C(C)(C)O)n2)c(OC)cc1N1CC[C@@H](N(C)C)C1 [Form A]
## Output 2130

---

Test: Solubility in bio-relevant media
Assay type: physicochemical
Conditions: SGF, simulated gastric fluid; 24 h
observed_property: solubility at 24 h
Give the value; after it, write the unit.

## Input Form field: reported solubility at 24 h of C=CC(=O)Nc1cc(Nc2nccc(Nc3cc(Cl)c(F)cc3C(C)(C)O)n2)c(OC)cc1N1CC[C@@H](N(C)C)C1 [Form B]
## Output 25.8 mg/mL

---

Experiment: Solubility in bio-relevant media
Assay type: physicochemical
Conditions: SIF, fassgf or other biorelevant; 2 h
observed_property: solubility at 2 h (µg/mL)
Supply the numeric figure in µg/mL, leaving out any unit text.

## Input Form field: reported solubility at 2 h of C=CC(=O)Nc1cc(Nc2nccc(Nc3cc(Cl)c(F)cc3C(C)(C)O)n2)c(OC)cc1N1CC[C@@H](N(C)C)C1 [Form B]
## Output 25

---

Reported pIC50 values follow for various molecules
Molecular target: EGFR L858R/T790M (Homo sapiens, UniProt P00533, L858R/T790M)
Construct: Form A and B in vitro cell based assay; endogenous in cells
Sequence (P00533 25-1210 T790M/L858R): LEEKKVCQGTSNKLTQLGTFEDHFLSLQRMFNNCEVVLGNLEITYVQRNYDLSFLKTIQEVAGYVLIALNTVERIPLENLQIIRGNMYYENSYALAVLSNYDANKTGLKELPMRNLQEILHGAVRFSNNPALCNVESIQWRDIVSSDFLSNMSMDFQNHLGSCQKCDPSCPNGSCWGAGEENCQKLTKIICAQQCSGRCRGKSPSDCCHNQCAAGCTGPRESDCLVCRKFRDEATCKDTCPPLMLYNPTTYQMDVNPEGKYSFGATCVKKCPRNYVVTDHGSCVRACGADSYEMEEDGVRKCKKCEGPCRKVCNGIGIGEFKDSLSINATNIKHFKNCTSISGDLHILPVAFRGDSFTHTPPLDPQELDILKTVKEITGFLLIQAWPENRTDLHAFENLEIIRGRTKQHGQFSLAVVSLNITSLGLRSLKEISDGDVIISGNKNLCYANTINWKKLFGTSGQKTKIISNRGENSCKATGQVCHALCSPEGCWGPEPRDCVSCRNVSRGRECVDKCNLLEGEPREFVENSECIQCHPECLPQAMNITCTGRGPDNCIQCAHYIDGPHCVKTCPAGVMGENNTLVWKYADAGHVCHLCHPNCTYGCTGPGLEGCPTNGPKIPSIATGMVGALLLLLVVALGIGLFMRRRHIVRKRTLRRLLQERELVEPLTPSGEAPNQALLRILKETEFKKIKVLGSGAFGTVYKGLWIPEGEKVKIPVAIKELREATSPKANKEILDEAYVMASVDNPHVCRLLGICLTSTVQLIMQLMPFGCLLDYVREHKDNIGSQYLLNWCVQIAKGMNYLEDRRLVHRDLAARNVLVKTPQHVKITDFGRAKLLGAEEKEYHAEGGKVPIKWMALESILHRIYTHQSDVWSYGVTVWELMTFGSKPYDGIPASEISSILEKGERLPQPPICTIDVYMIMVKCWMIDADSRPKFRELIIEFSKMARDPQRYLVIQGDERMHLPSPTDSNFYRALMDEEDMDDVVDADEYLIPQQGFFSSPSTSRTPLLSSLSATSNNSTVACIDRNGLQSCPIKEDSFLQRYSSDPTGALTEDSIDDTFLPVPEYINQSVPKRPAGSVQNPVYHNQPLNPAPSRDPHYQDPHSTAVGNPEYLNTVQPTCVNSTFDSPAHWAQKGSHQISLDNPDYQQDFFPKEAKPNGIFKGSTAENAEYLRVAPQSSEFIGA
Test: In vitro cell based assay, PD IC50, NCI-H1975
Just so you know, pIC50 here is -log10 of the concentration in molar units; reply with that number alone.

C=CC(=O)Nc1cc(Nc2nccc(Nc3cc(Cl)c(F)cc3C(C)(C)O)n2)c(OC)cc1N1CC[C@@H](N(C)C)C1 [Form B] ... 8.68

Shifting focus to the molecule that follows.
## Input Look up pIC50 with EGFR L858R/T790M (Homo sapiens, UniProt P00533, L858R/T790M) for this molecule: C=CC(=O)Nc1cc(Nc2nccc(Nc3cc(Cl)c(F)cc3C(C)(C)O)n2)c(OC)cc1N1CC[C@@H](N(C)C)C1 [Form A]
## Output 8.68
